Please respond with reported pKi for every item in the list.
target: human recombinant 5-HT2C receptor (Homo sapiens (Human)); test: 5-HT2C receptor binding inhibition test ([3H]-Mesulergine); settings: Jump-In HEK cell membrane, [3H]-Mesulergine; read-out: h-5-HT2C Ki
Sequence (P28335 33-458): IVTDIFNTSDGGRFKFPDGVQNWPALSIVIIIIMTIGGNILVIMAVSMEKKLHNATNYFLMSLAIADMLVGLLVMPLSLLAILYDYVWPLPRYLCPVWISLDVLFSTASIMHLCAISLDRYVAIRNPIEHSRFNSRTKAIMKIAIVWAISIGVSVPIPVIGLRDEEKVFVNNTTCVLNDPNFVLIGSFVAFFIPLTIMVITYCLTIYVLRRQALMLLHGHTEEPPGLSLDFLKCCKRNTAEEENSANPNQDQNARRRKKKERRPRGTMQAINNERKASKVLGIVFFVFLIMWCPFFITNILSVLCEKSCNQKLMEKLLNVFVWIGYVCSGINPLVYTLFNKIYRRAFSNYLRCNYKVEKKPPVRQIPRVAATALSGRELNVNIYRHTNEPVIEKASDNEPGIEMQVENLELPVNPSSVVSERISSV
pKi: −log10 of the molar value.

Q. Given the molecule "CC(C)COc1ccc(CN(Cc2ccn(C)n2)C(=O)N[C@H]2CCNCC23CC3)cc1" , what is its reported pKi?
A. > 8.00

Q. And then "CCN1CCC(NC(=O)N(Cc2ccc(OCC(C)C)cc2)Cc2ccn(C)n2)CC1" , what is it?
A. 7.00 to 8.00

Q. Now consider "CC(C)COc1ccc(CN(Cc2ccc(F)cn2)C(=O)NC2CCN(C)CC2)cc1" and answer again.
A. > 8.00

Q. Try this molecule too: CC(C)COc1ccc(CN(Cc2ccn(C)n2)C(=O)N[C@@H]2CCNC[C@H]2F)cc1 (racemic)
A. 7.00 to 8.00

* * *

molecular target: human recombinant 5-HT2A receptor (Homo sapiens (Human), UniProt P28223); experiment: 5-HT2A receptor binding inhibition test ([3H]-Ketanserin); details: Jump-In HEK cell membrane, read-out: h-5-HT2A Ki
Sequence (P28223 whole entry): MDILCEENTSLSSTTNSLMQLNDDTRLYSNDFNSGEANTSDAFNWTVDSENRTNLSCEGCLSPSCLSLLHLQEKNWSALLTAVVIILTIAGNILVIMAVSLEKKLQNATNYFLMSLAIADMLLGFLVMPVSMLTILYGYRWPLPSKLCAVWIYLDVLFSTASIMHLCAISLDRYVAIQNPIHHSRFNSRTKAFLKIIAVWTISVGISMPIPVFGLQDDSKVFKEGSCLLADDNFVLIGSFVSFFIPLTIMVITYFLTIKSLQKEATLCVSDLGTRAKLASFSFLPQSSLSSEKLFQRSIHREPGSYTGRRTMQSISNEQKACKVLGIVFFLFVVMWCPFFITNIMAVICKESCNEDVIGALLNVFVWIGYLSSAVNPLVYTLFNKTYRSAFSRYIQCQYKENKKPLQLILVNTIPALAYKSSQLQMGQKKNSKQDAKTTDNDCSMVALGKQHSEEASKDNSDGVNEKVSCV
I'd be grateful if you could share measured Ki for these entries.

Q. What value of measured Ki is listed for CC(C)COc1ccc(CN(Cc2ccn(C)n2)C(=O)NC2CCN(C)C3(CCC3)C2)cc1 (racemic) ?
A. < 10 nM

Q. Could you do the same for "Cc1nc(CN(Cc2ccc(OCC(C)C)cc2)C(=O)NC2CCN(C)CC2)co1" , please?
A. < 10 nM

Q. What do you have for "Cc1nc(CN(Cc2ccc(OCC(F)(F)C(F)(F)F)cc2F)C(=O)NC2CCN(C)CC2)co1" ?
A. < 10 nM

Q. Another: "Cc1ccc(CN(Cc2ccc(OCC(C)C)cc2)C(=O)OC2CCN(C)CC2)[nH]1"
A. < 10 nM

Q. Let us now turn to "CC(C)COc1ccc(CN(Cc2ccn(C)n2)C(=O)NCC2CN(C)C2)cc1"
A. 10 to 100 nM

Q. Note, next up: "CC(C)COc1ccc(CN(Cc2ccn(C)n2)C(=O)N[C@H]2CCN(C)C[C@@H]2C)cc1"
A. < 10 nM

Q. Now the same for "CC(C)COc1ccc(CN(Cc2ccsc2)C(=O)NC2CCN(C)CC2)cc1"
A. < 10 nM

Q. Query "CCCc1ccc(CN(Cc2coc(C)n2)C(=O)NC2CCN(C)CC2)c(F)c1" next
A. < 10 nM

Q. Can you check "CN1CCC(NC(=O)N(Cc2coc(C3CC3)n2)Cc2ccc(OCC(F)(F)F)cc2F)CC1" next?
A. < 10 nM

Q. Then what about the compound "CCCCOc1ccc(CN(Cc2coc(C)n2)C(=O)N[C@H]2CCN(C)CC23CC3)c(F)c1" ?
A. < 10 nM

Q. Lookup "CC(C)COc1ccc(CN(Cc2ccc(F)cn2)C(=O)NC2CCN(C)CC2)cc1"
A. < 10 nM

Q. Consider next the compound "CCCCOc1ccc(CN(Cc2coc(C)n2)C(=O)N[C@H]2CCN(C)CC23CC3)cc1" in the same way.
A. < 10 nM

Q. What do we get for "Cc1nc(CN(Cc2ccc(OCC(F)(F)C(F)(F)F)cc2)C(=O)NC2CCN(C)CC2)co1" ?
A. < 10 nM

Q. Same lookup for CC(C)COc1ccc(CN(Cc2ccc(F)cn2)C(=O)NC2CCN(C)CC23CC3)cc1 (racemic) , please.
A. < 10 nM

Q. Now consider "CC(C)COc1ccc(CN(Cc2coc(CF)n2)C(=O)NC2CCN(C)CC2)cc1" and answer again.
A. < 10 nM

Q. Another compound: "CCCCOc1ccc(CN(Cc2cnn(C)n2)C(=O)N[C@H]2CCN(C)CC23CC3)c(F)c1"
A. < 10 nM

Q. Try the compound "COc1ccc(CN(Cc2ccn(C)c2)C(=O)OC2CCN(C)CC2)cc1"
A. < 10 nM

Q. Can you check "CC(C)COc1ccc(CN(Cc2cnccn2)C(=O)NC2CCN(C)CC2)cc1" next?
A. 10 to 100 nM

Q. Same thing, different compound: "CC(C)COc1ccc(CN(Cc2ccn(C)n2)C(=O)N[C@@H]2CCNCC2(F)F)cc1"
A. 100 to 5000 nM

Q. And "CC(C)COc1ccc(CN(Cc2nccs2)C(=O)NC2CCN(C)CC2)cc1" ?
A. 10 to 100 nM

Q. Also check "Cc1cc(CN(Cc2ccc(OCC(C)C)cc2)C(=O)NC2CCN(C)CC2)nn1C"
A. < 10 nM

Q. Request: "CC(C)COc1ccc(CN(Cc2ccn(C)n2)C(=O)NC23CCN(CC2)CC3)cc1"
A. 10 to 100 nM

Q. Would you mind doing "Cc1nc(CN(Cc2ccc(OCC(C)C)cc2)C(=O)N[C@H]2CCNC[C@H]2F)co1" as well?
A. < 10 nM

Q. Now consider "CC(C)COc1ccc(CN(Cc2ccn(C)n2)C(=O)CN2CCN(C)CC2)cc1" .
A. 10 to 100 nM

Q. Request: "CCCCOc1ccc(CN(Cc2cnn(C)n2)C(=O)N[C@H]2CCN(C)CC23CC3)cc1F"
A. < 10 nM

Q. Then "CC(C)COc1ccc(CN(Cc2ccncc2)C(=O)NC2CCN(C)CC2)cc1" ?
A. 10 to 100 nM

Q. Could you do the same for "CC(C)COc1ccc(CN(Cc2ccccn2)C(=O)NC2CCN(C)CC2)cc1" , please?
A. < 10 nM

Q. Query "CC(C)COc1ccc(CN(Cc2cc(-c3ccccc3)n(C)n2)C(=O)NC2CCN(C)CC2)cc1" next
A. 10 to 100 nM

Q. Can you check "Cc1ccc(CN(Cc2ccn(C)n2)C(=O)NC2CCN(C)CC2)cc1" next?
A. 10 to 100 nM

Q. Another compound to check: "CC(C)COc1ccc(CN(Cc2ccnn2C)C(=O)NC2CCN(C)CC2)cc1"
A. 100 to 5000 nM

Q. Please do the same for "CCCCOc1ccc(CN(Cc2cnn(C)n2)C(=O)N[C@H]2CCN(C)CC23CC3)cc1" as well.
A. < 10 nM

* * *

target: human recombinant 5-HT2A receptor (Homo sapiens (Human), UniProt P28223); experiment: 5-HT2A receptor binding inhibition test ([3H]-Ketanserin); details: Jump-In HEK cell membrane, read-out: h-5-HT2A Ki
pKi: −log10 of the molar value.
Would you kindly list pKi for each of these molecules?

Q. pKi lookup needed for "CC(C)COc1ccc(CN(Cc2ccn(C)n2)C(=O)N[C@H]2C[C@H]3CCC[C@@H](C2)N3C)cc1" , thanks.
A. 5.30 to 7.00

Q. Also, "CC(C)COc1ccc(CN(Cc2ccn(C)n2)C(=O)N[C@@H]2CCN(C)C[C@H]2C)cc1" please.
A. > 8.00

Q. Another: "CCN1CCC(NC(=O)N(Cc2ccc(OCC(C)C)cc2)Cc2ccn(C)n2)CC1"
A. > 8.00

Q. # repeat for "CC(C)COc1ccc(CN(Cc2ccn(C)n2)C(=O)N[C@H]2C[C@H]3CC[C@@H](C2)N3C)cc1"
A. 7.00 to 8.00

Q. Would you kindly repeat that for "CC(C)COc1ccc(CN(Cc2ccn(C)n2)C(=O)N[C@H]2CCN(C)C[C@H]2F)cc1" ?
A. > 8.00

Q. // same read-out, input: "Cc1nc(CN(Cc2ccc(CCC(F)(F)F)cc2)C(=O)NC2CCN(C)CC2)co1"
A. > 8.00

Q. Also need "CNC(=O)CN1CCC(NC(=O)N(Cc2ccc(OCC(C)C)cc2)Cc2ccn(C)n2)CC1" , thanks.
A. 5.30 to 7.00

* * *

For each record, write down the corresponding pIC50.
molecular target: human ether-a-go-go related gene (hERG) channel (Homo sapiens (Human), UniProt Q12809); assay: hERG test (FluxOR potassium channel assay, FLIPR); format: cell-based; settings: CHO cells expressing hERG channel, thallium flux fluorescence
Sequence (Q12809 whole entry): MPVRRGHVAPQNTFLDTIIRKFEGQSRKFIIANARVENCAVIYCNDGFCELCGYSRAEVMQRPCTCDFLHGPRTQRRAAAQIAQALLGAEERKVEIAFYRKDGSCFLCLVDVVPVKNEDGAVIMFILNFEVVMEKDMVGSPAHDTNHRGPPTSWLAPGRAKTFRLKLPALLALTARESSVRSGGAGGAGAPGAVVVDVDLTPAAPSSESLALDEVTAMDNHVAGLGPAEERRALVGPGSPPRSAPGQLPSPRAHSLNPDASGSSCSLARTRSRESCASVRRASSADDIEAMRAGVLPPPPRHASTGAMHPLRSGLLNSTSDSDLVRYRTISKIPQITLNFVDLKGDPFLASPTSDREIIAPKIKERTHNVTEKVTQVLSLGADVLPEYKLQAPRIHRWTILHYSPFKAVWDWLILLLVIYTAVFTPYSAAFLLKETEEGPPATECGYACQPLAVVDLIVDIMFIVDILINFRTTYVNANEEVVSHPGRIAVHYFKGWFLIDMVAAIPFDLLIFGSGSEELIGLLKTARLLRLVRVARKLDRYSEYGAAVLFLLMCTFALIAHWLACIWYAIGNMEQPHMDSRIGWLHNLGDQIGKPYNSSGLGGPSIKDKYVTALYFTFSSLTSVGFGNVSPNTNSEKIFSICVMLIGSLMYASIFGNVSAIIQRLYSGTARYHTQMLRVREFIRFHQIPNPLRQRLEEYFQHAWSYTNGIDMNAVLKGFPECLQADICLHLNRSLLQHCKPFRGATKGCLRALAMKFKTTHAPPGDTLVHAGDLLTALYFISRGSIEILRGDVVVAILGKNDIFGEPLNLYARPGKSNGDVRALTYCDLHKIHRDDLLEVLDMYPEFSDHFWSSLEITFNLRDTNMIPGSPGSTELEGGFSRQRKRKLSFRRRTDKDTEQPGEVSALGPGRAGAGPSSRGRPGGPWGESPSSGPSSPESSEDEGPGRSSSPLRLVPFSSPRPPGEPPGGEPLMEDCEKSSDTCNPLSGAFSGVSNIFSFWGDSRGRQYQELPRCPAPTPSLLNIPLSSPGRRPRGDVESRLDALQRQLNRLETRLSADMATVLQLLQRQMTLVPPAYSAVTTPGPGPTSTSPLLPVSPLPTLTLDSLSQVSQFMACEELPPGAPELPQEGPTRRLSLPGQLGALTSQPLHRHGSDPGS
pIC50: −log10 of the molar value.

Q. pIC50 for CCCCOc1ccc(CN(Cc2coc(C)n2)C(=O)CC2CCN(C)CC2)cc1 [Compound I-099] ?
A. 4.33

Q. Param item: Cc1cc(CN(Cc2ccc(OCC(C)C)cc2)C(=O)OC2CCN(C)CC2)nn1C [Compound I-083]
A. < 4.28

Q. Also CC(C)COc1ccc(CN(Cc2cnn(C)n2)C(=O)OC2CCN(C)CC2)cc1 [Compound I-084] ?
A. < 4.28

Q. Next compound up: CC(C)COc1ccc(CN(Cc2ccn(C)n2)C(=O)OC2CCN(C)CC2)cc1 [Compound I-082]
A. < 4.28

Q. Param item: Cc1nc(CN(Cc2ccc(OCC(C)C)cc2)C(=O)OC2CCN(C)CC2)co1 [Compound I-081]
A. < 4.28

* * *

test: Metabolic stability test; assay type: in vitro ADME; conditions: human hepatic microsomes, 0.5 μmol/L, 30 minutes, 37° C., NADPH (oxidative reaction)
I'd appreciate it if you could supply remaining rate of the compound values for the items below.
State just the number; it will be interpreted in %.

Q. Quick check: remaining rate of the compound of CCCCOc1ccc(CN(Cc2cnn(C)n2)C(=O)NC2CCN(C)CC2)c(F)c1 [Compound I-102] ?
A. 97.3

Q. Param item: Cc1nc(CN(Cc2ccc(OCC(C)C)cc2)C(=O)NC2CCN(C)CC2)co1 [Compound I-077]
A. 85.3

Q. Would you mind doing CC(C)COc1ccc(CN(Cc2ccn(C)n2)C(=O)N[C@H]2CCNCC23CC3)cc1 [Compound I-028] as well?
A. 90.2

Q. Next up: CC(C)COc1ccc(CN(Cc2ccn(C)n2)C(=O)NC2CCN(C)CC2)cc1 [Compound I-043]
A. 85.0

Q. Follow-up item: CCCCOc1ccc(CN(Cc2coc(C)n2)C(=O)NC2CCN(C)CC2)cc1 [Compound I-086]
A. 75.5

Q. Please do the same for CC(C)COc1ccc(CN(Cc2ccc(F)cn2)C(=O)NC2CCN(C)CC2)cc1 [Compound I-016] as well.
A. 99.6

Q. What do we get for Cc1nc(CN(Cc2ccc(OCC(F)(F)C(F)(F)F)cc2)C(=O)NC2CCN(C)CC2)co1 [Compound I-088] ?
A. 80.0
